experiment: Agilent ZORBAX 300 SB-C18, 150 × 1 mm, 3.5 µm; A: water + 0.01% heptafluorobutyric acid; B: acetonitrile + 0.01% heptafluorobutyric acid; gradient (min/%B) 0/0 100/90; conditions: stereoisomer not certain
test readout: LC retention time (min)

Use the examples below as a reference point.
CC(C)NCC(O)COc1cccc2ccccc12 (stereo not drawn)	10.4
NC(=O)NNC(=S)Nc1ccccc1	7.03
Cn1c(=O)c2n[nH]c(=S)nc2n(C)c1=O	7.17
COC(=O)Cn1c2c(c3ccccc31)CCCC2	16.2
CCCNC1CCN(C(C)=O)CC1	6.77

(1) CCOC(=O)C=CC(=O)NCCC1=CCCCC1
(2) O=c1[nH]c(=O)n(CCc2ccccc2)c2c1CN(C1CCCC1)CN2
Ask | Higher LC retention time: 1 or 2 ? Let me know the label of the one you choose.
Reply | 1

(a) O=c1cc(Nc2ccccc2)c2ccccc2o1
(b) Nc1c2ccccc2nc2ccccc12
Ask | Consider entries a and b . Which has the numerically lower LC retention time? Identify your selection by its label.
Reply | b
(b: 8.38 min, a: 12.2 min)
